Parameter: normalized RNA/DNA level with ligand (log10). Scope: all listed entries.
B1: library; a variant is named by its letters at N, in order (parent)
chain: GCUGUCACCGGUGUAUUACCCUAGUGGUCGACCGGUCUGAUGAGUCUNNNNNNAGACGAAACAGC

Variants of: B1
Test: normalized RNA/DNA level with ligand (relative to sTRSVctl = 100) (log10 (% of sTRSVctl)); ligand: hypoxanthine (xanthine aptamer); higher = less ribozyme self-cleavage, higher mRNA level
Details: ligand concentration (+) RNA-Seq: 5 mM, HEK293T, reporter: mCherry (pCS4076), ligand present: yes
No unit in the answer, please; the number alone is enough.

Example entries and their recorded answers appear below.
ALTERATION | RECORDED_NUMBER
UAAGAA | 1.91
AGUGGA | 1.91
CUCGUA | 1.91
GGACUU | 1.94

QUERY: Using the record for `AGCAGC` , report its normalized RNA/DNA level with ligand (log10).
RESULT: 1.99

QUERY: So what does the record say about normalized RNA/DNA level with ligand (log10) for `GUAACC` ?
RESULT: 1.96

QUERY: Quick check: normalized RNA/DNA level with ligand (log10) of `UCCAAA` ?
RESULT: 1.94

QUERY: Reported normalized RNA/DNA level with ligand (log10) for `UAUAAU` : what is it?
RESULT: 1.93

QUERY: Quick one: normalized RNA/DNA level with ligand (log10) for `AGCGAA` ?
RESULT: 1.92

QUERY: I am curious: what normalized RNA/DNA level with ligand (log10) value has been reported for `UUAUGA` ?
RESULT: 1.91

QUERY: Requested field: normalized RNA/DNA level with ligand (log10). Item: `AGGGAA`
RESULT: 1.86

QUERY: Look at this variant and give its reported normalized RNA/DNA level with ligand (log10). `AGUCCU`
RESULT: 1.92

QUERY: Any idea what normalized RNA/DNA level with ligand (log10) was measured for `CAUUUU` ?
RESULT: 1.97

QUERY: Form field: reported normalized RNA/DNA level with ligand (log10) of `UGGCCC`
RESULT: 2.02

QUERY: Fill in the blank: the reported normalized RNA/DNA level with ligand (log10) of `AAACAG` is ____.
RESULT: 1.77

QUERY: # normalized RNA/DNA level with ligand (log10) lookup, item `ACGGGA`
RESULT: 1.84

QUERY: Name the reported normalized RNA/DNA level with ligand (log10) value associated with the variant `UUCUGC`
RESULT: 2

QUERY: Which value of normalized RNA/DNA level with ligand (log10) has been reported for `AGAGCU` in the records?
RESULT: 1.93

QUERY: Sample `CUAGCC` — what was its normalized RNA/DNA level with ligand (log10)?
RESULT: 1.95

QUERY: // normalized RNA/DNA level with ligand (log10) lookup, key: `UAUCUC`
RESULT: 2

QUERY: Can you share its normalized RNA/DNA level with ligand (log10)? I mean this variant: `UACUAU`
RESULT: 1.89

QUERY: // lookup normalized RNA/DNA level with ligand (log10) for `CACGCG`
RESULT: 1.93

QUERY: # input variant: `ACUAUU` ; wanted: its normalized RNA/DNA level with ligand (log10)
RESULT: 1.93
